TARGET_SYSTEM: HLA-DR molecule, DRB1*1501 (human)
METHOD: ELISA
Where no end group is shown, it is not given here.
QUANTITY_NAME: IC50 (µM)
Give bare numbers, in µM.

Query block: Consider the binder shown here: GKQLYNVEATSYALLALLQLKDFD (also: amino and carboxyl ends blocked) [C3d_(223–246)] What is its recorded IC50?
Result block: 85.1
